Origin of values: ChEMBL document CHEMBL1130410

# SYSTEM: 3-oxo-5-alpha-steroid 4-dehydrogenase 1 (Homo sapiens)
# Sequence (P18405 whole entry): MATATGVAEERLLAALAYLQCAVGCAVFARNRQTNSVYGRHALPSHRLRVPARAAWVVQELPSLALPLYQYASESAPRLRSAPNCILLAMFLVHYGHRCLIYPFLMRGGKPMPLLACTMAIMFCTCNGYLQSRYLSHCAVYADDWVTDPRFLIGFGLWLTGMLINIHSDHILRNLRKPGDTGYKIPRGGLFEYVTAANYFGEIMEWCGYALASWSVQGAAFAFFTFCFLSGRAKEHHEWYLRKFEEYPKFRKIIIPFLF
# TEST: Inhibitory activity against human 5-alpha Reductase-1 expressed in DU-145 cells
# Assay type: cell-based
Exercise: for every item that follows, state its recorded IC50.
Give bare numbers, in nM.

# count of solved cases: 3
[
  {
    "COMPOUND": "C[C@]12CC[C@H]3[C@@H](CCC4=CC(=O)CCN43)[C@@H]1CC[C@@H]2O",
    "ENDPOINT UNIT": "nM",
    "IC50": 409
  },
  {
    "COMPOUND": "C[C@]12CC=C3[C@@H](CCC4=CC(=O)CCN43)C1CCC2=O.C[C@]12CCC3=C(CCC4=CC(=O)CCN43)C1CCC2=O (stereo in doubt; 4a:4b(5:1))",
    "ENDPOINT UNIT": "nM",
    "IC50": 263
  },
  {
    "COMPOUND": "C[C@]12CC[C@H]3[C@@H](CCC4=CC(=O)CCN43)[C@@H]1CCC2=O",
    "ENDPOINT UNIT": "nM",
    "IC50": 299
  }
]

Value sought for every listed compound: IC50.
1. CC(C)(C)NC(=O)[C@H]1CC[C@H]2[C@@H]3CCC4=CC(=O)CCN4[C@H]3CC[C@]12C
2. CC(C)(C)NC(=O)[C@H]1CC[C@H]2C3=C(CC[C@]12C)N1CCC(=O)C=C1CC3.CC(C)(C)NC(=O)[C@H]1CC[C@H]2C3CCC4=CC(=O)CCN4C3=CC[C@]12C (some centres not stated)

1. 1130
2. 127
